Tested on: SR leukemia
protocol: NCI tumour cell line growth inhibition, 48 h
Overview of reported TGI across a group of molecules:
Report the value in µM with no unit label.

For orientation, consider the following solved cases.
[[record]]
structure_smiles = "COC(=O)[C@H](C)NC(=O)C1(CNC(=O)[C@H](C)NC(=O)OC(C)(C)C)Cc2ccccc2-c2ccccc2C1"
unit_tag = "µM"
value = 43.4

[[record]]
structure_smiles = "CC(C)C(=O)Nc1ccc(-c2nc(-c3cccc(OCCN4CCOCC4)c3)c(-c3ccnc(Br)c3)[nH]2)cc1"
unit_tag = "µM"
value = 7.09

[[record]]
structure_smiles = "COC1=CC(=O)c2c(c(COC(C)=O)cn2C)C1=O"
unit_tag = "µM"
value = 0.545


Query string: Query: TGI; subject: O=C(/C=C/c1ccco1)Nc1ncc(Cc2cccc(C(F)(F)F)c2)s1
Result string: 3.67

Query string: Query: TGI; subject: [N-]=[N+]=NCCCn1c2c(c3ccc([N+](=O)[O-])cc3c1=O)C(=O)c1cc(I)ccc1-2
Result string: 2.87

----------
Tested on: HL-60(TB) leukemia
protocol: NCI tumour cell line growth inhibition, 48 h
Overview of reported TGI across a group of compounds:
Report the value in µM with no unit label.

For orientation, consider the following solved cases.
[[record]]
compound = "Clc1ccc(C2CC(c3cccc(Nc4ccncc4)c3)=NN2c2ccccc2)cc1 (stereo not given)"
value = 3.87

[[record]]
compound = "COc1ccc(CN2C(=O)/C(=C\\C(=O)c3ccc(OCCN4CCCC4)cc3)c3ccccc32)cc1"
value = 6.7

[[record]]
compound = "CON=C1C[C@]2(C[C@@H]3C[C@@H](C/C=C(\\C)C[C@@H](C)/C=C/C=C4\\CO[C@@H]5[C@H](O)C(C)=C[C@@H](C(=O)O3)[C@]45O)O2)O[C@H](/C(C)=C/C(C)C)[C@H]1C"
value = 5.92

[[record]]
compound = "Cc1cc(Cl)ccc1NC(=O)CC1SC(=NC(=O)c2ccccc2Cl)NC1=O (stereo not given)"
value = 4.72

[[record]]
compound = "CCCCOC(=O)/C=C\\C(=O)NC(N)=O"
value = 49.9


Below: the item to evaluate.
Query string: Hello, I am looking for reported TGI with HL-60(TB) leukemia for CCOC(=O)c1cc(C2=CCNC2=O)c(-c2cc(C)no2)[nH]1 . Could you help?
Result string: 56.8

----------
Test system: U251 CNS
protocol: NCI tumour cell line growth inhibition, 48 h
Overview of reported TGI across a group of molecules:

For orientation, consider the following solved cases.
[[record]]
molecule = "CC(C)(C)C(O)CC(O)(C(F)(F)F)C(F)(F)F (stereo not given)"
value = "> 100 µM"

[[record]]
molecule = "CC1(CO)C(O)CCC2(C)C1C(O)CC1CC3CC12CCC3(O)CO (stereo not given)"
value = "> 225 µM"

[[record]]
molecule = "COC(O)C(=O)c1c2c(cc3c1CCC3)CCC2 (stereo not given)"
value = "> 100 µM"

[[record]]
molecule = "O=C1C[C@@H]2[C@@H](CCC23CCCC3)N1"
value = "> 100 µM"


Below: the item to evaluate.
Query string: Query: TGI; subject: C=C1C(=O)O[C@@H]2C[C@@H]1CC[C@]1(C)O[C@H]1CC/C(C)=C/CC[C@@]2(C)O
Result string: 28.9 µM
